- Test Details: recombinant UMI read abundance after kanamycin selection (control-corrected) (log10(CPM+1)); higher = more efficient recombination; extreme values may be limits of the assay; sequences stand for … in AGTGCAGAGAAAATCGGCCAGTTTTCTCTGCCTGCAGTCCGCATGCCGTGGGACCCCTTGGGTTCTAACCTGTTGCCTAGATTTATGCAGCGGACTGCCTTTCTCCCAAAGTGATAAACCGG…AGGTTGGTTTCACT; site = the 11-nt donor;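 further: IS621 bridge recombinase in Escherichia coli cells against a fixed T5 target plasmid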
Label MET for high-side recombinant UMI read abundance (log10) (at or above 0.8) and NOT MET for low-side recombinant UMI read abundance (log10) (below it).

Asked: Given GCGTGGTCATGGACCGGTTTTCCCGGTAATCCGTATTTGGC (site GCGTGGTCTGC) , state whether its recombinant UMI read abundance (log10) is at least 0.8.
Given back: MET

Asked: And for AGTGAGACATGGACCGGTTTTCCCGGTAATCCGTATTTGGT (site AATGAGACTAC) ?
Given back: NOT MET

Asked: And for CTCCCAACATGGACCGGTTTTCCCGGTAATCCGTATTTGAG (site CTCCCCACTCT) ?
Given back: NOT MET

Asked: And for GGAAATCCATGGACCGGTTTTCCCGGTAATCCGTATTTGAA (site GGTAATCCTTT) ?
Given back: NOT MET

Asked: And for ATGTCGGCATGGACCGGTTTTCCCGGTAATCCGTATTTGGC (site ATGTTGGCTGC) ?
Given back: NOT MET

Asked: And for AGCTCAGCATGGACCGGTTTTCCCGGTAATCCGTATTTGTG (site AGCTCAGCTCA) ?
Given back: NOT MET

Asked: And for TATTGCACATGGACCGGTTTTCCCGGTAATCCGTATTTGGT (site TATTGCACTAC) ?
Given back: NOT MET

Asked: And for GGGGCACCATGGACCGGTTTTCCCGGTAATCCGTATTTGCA (site TGGGCACCTTG) ?
Given back: NOT MET

Asked: And for TCTTCGACATGGACCGGTTTTCCCGGTAATCCGTATTTGAG (site TCTTCGACTCT) ?
Given back: NOT MET

Asked: And for AGGAAGACATGGACCGGTTTTCCCGGTAATCCGTATTTGCC (site AGGAAGACTGG) ?
Given back: MET

Asked: And for AGTTGGTCATGGACCGGTTTTCCCGGTAATCCGTATTTGAA (site AGTTGGTCTTT) ?
Given back: NOT MET

Asked: And for TGGCTCTCATGGACCGGTTTTCCCGGTAATCCGTATTTGCA (site TGGCTCTCTTG) ?
Given back: MET

Asked: And for CTGCTGACATGGACCGGTTTTCCCGGTAATCCGTATTTGAC (site CTGCTGACTGT) ?
Given back: MET

Asked: And for AGCCTAGCATGGACCGGTTTTCCCGGTAATCCGTATTTGTA (site AGCCTAGCTAA) ?
Given back: NOT MET

Asked: And for CCCTAACCATGGACCGGTTTTCCCGGTAATCCGTATTTGCC (site CCCTACCCTGG) ?
Given back: NOT MET

Asked: And for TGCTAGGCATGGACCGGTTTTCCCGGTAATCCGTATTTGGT (site TGCTAGGCTAC) ?
Given back: NOT MET

Asked: And for AGCAGTGCATGGACCGGTTTTCCCGGTAATCCGTATTTGAG (site AGCAGTGCTCT) ?
Given back: MET

Asked: And for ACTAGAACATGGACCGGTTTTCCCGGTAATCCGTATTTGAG (site AATAGAACTCT) ?
Given back: MET

###

- Test Details: recombinant UMI read abundance after kanamycin selection (control-corrected) (log10(CPM+1)); higher = more efficient recombination; extreme values may be limits of the assay; sequences stand for … in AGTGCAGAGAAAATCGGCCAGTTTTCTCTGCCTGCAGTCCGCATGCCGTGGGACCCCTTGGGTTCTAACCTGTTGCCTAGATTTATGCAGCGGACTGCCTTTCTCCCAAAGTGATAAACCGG…AGGTTGGTTTCACT; site = the 11-nt donor
Parameter Measured: recombinant UMI read abundance (log10)
Keep the answer to the number alone.

Asked: I have this sequence here, TGTACACCATGGACCGGTTTTCCCGGTAATCCGTATTTGAG (site TGTACACCTCT) , and I need its recorded recombinant UMI read abundance (log10).
Given back: 0.00855

Asked: And for TTAGCTCCATGGACCGGTTTTCCCGGTAATCCGTATTTGTG (site TTAGCTACTCA) ?
Given back: 0.00349

Asked: And for TGCTAGACATGGACCGGTTTTCCCGGTAATCCGTATTTGGT (site TGCTAGTCTAC) ?
Given back: 0.357

Asked: And for GGTAGAACATGGACCGGTTTTCCCGGTAATCCGTATTTGGC (site GGTAGAACTGC) ?
Given back: 0.973

Asked: And for TCGGAGACATGGACCGGTTTTCCCGGTAATCCGTATTTGCG (site TCAGAGACTCG) ?
Given back: 1.72

Asked: And for TGAAGTCCATGGACCGGTTTTCCCGGTAATCCGTATTTGTA (site TAAAGTCCTTA) ?
Given back: 0.00928

Asked: And for AATTTGGCATGGACCGGTTTTCCCGGTAATCCGTATTTGTG (site TATTTGGCTCA) ?
Given back: 0.187

Asked: And for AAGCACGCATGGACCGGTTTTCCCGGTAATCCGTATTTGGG (site AAGCATGCTCC) ?
Given back: 0.0182

Asked: And for CATTTGGCATGGACCGGTTTTCCCGGTAATCCGTATTTGTG (site CATTTGGCTCA) ?
Given back: 0.552

Asked: And for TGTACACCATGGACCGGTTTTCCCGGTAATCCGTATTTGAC (site TGTACAGCTGT) ?
Given back: 0

Asked: And for AGGAATACATGGACCGGTTTTCCCGGTAATCCGTATTTGCA (site AGGAAGACTTG) ?
Given back: 0.151

Asked: And for GAGATCACATGGACCGGTTTTCCCGGTAATCCGTATTTGGT (site GAGATCACTAC) ?
Given back: 1.37

Asked: And for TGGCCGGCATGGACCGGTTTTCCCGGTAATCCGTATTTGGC (site AGGCCGGCTGC) ?
Given back: 0

Asked: And for CATTTCCCATGGACCGGTTTTCCCGGTAATCCGTATTTGCT (site CACTTCCCTAG) ?
Given back: 0.691

Asked: And for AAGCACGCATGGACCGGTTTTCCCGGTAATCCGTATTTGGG (site AAACACGCTCC) ?
Given back: 0.00685

Asked: And for GGGACTACATGGACCGGTTTTCCCGGTAATCCGTATTTGAC (site AGGACTACTGT) ?
Given back: 0

Asked: And for TCATACTCATGGACCGGTTTTCCCGGTAATCCGTATTTGCT (site TCATACTCTTG) ?
Given back: 0

Asked: And for GATTGGGCATGGACCGGTTTTCCCGGTAATCCGTATTTGAC (site GATTGGACTGT) ?
Given back: 0.803

Asked: And for TTAGCTGCATGGACCGGTTTTCCCGGTAATCCGTATTTGAG (site TTAGCTGCTCA) ?
Given back: 0.025

Asked: And for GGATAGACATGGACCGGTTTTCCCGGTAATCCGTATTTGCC (site GGATGGACTGG) ?
Given back: 0

Asked: And for CAAATATCATGGACCGGTTTTCCCGGTAATCCGTATTTGAC (site CTAGTATCTGT) ?
Given back: 0.632

Asked: And for CGGGAACCATGGACCGGTTTTCCCGGTAATCCGTATTTGTT (site CGGGAACCTAA) ?
Given back: 0.47

Asked: And for GTAACGCCATGGACCGGTTTTCCCGGTAATCCGTATTTGGT (site GTAACGCCTAC) ?
Given back: 0.517

Asked: And for TGGCCCGCATGGACCGGTTTTCCCGGTAATCCGTATTTGGC (site TGGCCAGCTGC) ?
Given back: 0

Asked: And for TCCACCGCATGGACCGGTTTTCCCGGTAATCCGTATTTGCC (site TCCACCGCTGG) ?
Given back: 0

Asked: And for GTGGTGGCATGGACCGGTTTTCCCGGTAATCCGTATTTGTG (site GTGGTGGCTCA) ?
Given back: 0.992

Asked: And for TGCTCGGCATGGACCGGTTTTCCCGGTAATCCGTATTTGGT (site TGCTAGGCTAC) ?
Given back: 0.00732

Asked: And for GAGCTGACATGGACCGGTTTTCCCGGTAATCCGTATTTGAT (site GAGCTCACTAT) ?
Given back: 0.0113

Asked: And for AGAGAGGCATGGACCGGTTTTCCCGGTAATCCGTATTTGCT (site AGACAGGCTAG) ?
Given back: 0.828

Asked: And for GCAGATTCATGGACCGGTTTTCCCGGTAATCCGTATTTGGG (site GCAGATTCTCC) ?
Given back: 0.609

Asked: And for TCAAGTCCATGGACCGGTTTTCCCGGTAATCCGTATTTGTA (site TTAAGTCCTTA) ?
Given back: 0.0663

Asked: And for GGCTCTACATGGACCGGTTTTCCCGGTAATCCGTATTTGGC (site GGCTCTACTGC) ?
Given back: 0

Asked: And for CAAGGAGCATGGACCGGTTTTCCCGGTAATCCGTATTTGTC (site CAAGGAGCTGA) ?
Given back: 3.18

Asked: And for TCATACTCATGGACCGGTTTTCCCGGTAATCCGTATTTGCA (site TCATACGCTTG) ?
Given back: 0.00277

Asked: And for CTTGTATCATGGACCGGTTTTCCCGGTAATCCGTATTTGAC (site CTAGTATCTGT) ?
Given back: 0

Asked: And for TAATGGCCATGGACCGGTTTTCCCGGTAATCCGTATTTGCA (site CAATGGCCTTG) ?
Given back: 0.089
